B1: TPR 5TU (parent)
chain: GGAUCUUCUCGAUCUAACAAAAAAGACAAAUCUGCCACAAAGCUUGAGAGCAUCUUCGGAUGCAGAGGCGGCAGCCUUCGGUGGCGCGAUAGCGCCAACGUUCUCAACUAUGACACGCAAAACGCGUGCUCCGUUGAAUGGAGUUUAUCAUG

# Variants of: B1
# experiment: polymerase ribozyme fitness, log enrichment relative to wild type (log ratio); higher = more active; in vitro selection for triplet polymerase activity
This sample holds only a part of the variants without activity.
What polymerase ribozyme fitness (log ratio) was measured for each of the following?
Respond with the number and no other words.

**Q:** Quick one: polymerase ribozyme fitness (log ratio) of U53A A122G U134A ?
**A:** -3.02

**Q:** What would you report for C8A A12G ?
**A:** -3.98

**Q:** Try this variant next: U90C G94U G124A C125U
**A:** -4

**Q:** What do you get for C57G C96A ?
**A:** -0.472

**Q:** What do you get for U4A U15G C87U ?
**A:** 0.183

**Q:** // repeat for U33C C85A and report
**A:** -3.61

**Q:** // same read-out, input: A39U A122G U145G
**A:** -2.48

**Q:** Now give it for C27U G58A C96U C116U C118G U144G too.
**A:** -0.836

**Q:** Then what about the variant C38U C69A U82A G94U ?
**A:** -3.99

**Q:** Also need C85A A137G , thanks.
**A:** -2.96

**Q:** Would you kindly repeat that for C14A A16G A20G U56A U82G A106G ?
**A:** -3.04

**Q:** Same lookup for C76A G94A , please.
**A:** -0.598

**Q:** Now give it for C95A C99A C123G too.
**A:** -1.33

**Q:** Proceed to C57G U82A A98G
**A:** -3.69

**Q:** Please answer likewise for G92A G136C
**A:** -3.83

**Q:** Next: A19C U109G
**A:** -0.641

**Q:** Moving on to the next variant: U55G C87U
**A:** -1.42

**Q:** Next entry: U13C A20C G50C
**A:** -3.15

**Q:** Would you mind doing C54G U56A C96G U102C G136A U144G as well?
**A:** -3.08

**Q:** Ok, now G88U A106G
**A:** -3.91

**Q:** Also check A60C G83U A121U
**A:** -2.35

**Q:** Record: A12G C87U
**A:** -0.54
